Biological target: Heat shock protein HSP90 (Homo sapiens) (UniProt P07900+P08238)
Assay: Inhibition of Hsp90 in human MCF7 cells assessed as induction of Akt degradation at 5 fold IC50 after 24 hrs by Western blot method
Format: cell-based
Calls of active or inactive are those of the source. The calls are words filed in the database; no cut-off is given here.
Measurement Kind: inhibition

COc1ccc(C(=O)Nc2cc3ccc(O[C@@H]4OC(C)(C)[C@H](OC)[C@@H](O)[C@H]4O)c(C)c3oc2=O)cc1-c1cc(C(=O)Nc2cc3ccc(O[C@@H]4OC(C)(C)[C@H](OC)[C@@H](O)[C@H]4O)c(C)c3oc2=O)ccc1OC = Active
COc1ccc(C(=O)Nc2cc3cc(OC)c(O[C@@H]4OC(C)(C)[C@H](OC)[C@@H](O)[C@H]4O)c(C)c3oc2=O)cc1-c1cc(C(=O)Nc2cc3cc(OC)c(O[C@@H]4OC(C)(C)[C@H](OC)[C@@H](O)[C@H]4O)c(C)c3oc2=O)ccc1OC = Active

====

Molecular target: Heat shock protein HSP90 (Homo sapiens) (UniProt P07900+P08238)
Test: Inhibition of Hsp90 in human MCF7 cells assessed as induction of Raf degradation at 5 fold IC50 after 24 hrs by Western blot method
Type: cell-based
The source made the active and inactive calls. No cut-off for these calls is given here.
Measurement Kind: inhibition

Example cases with answers are listed next.
COc1ccc(C(=O)Nc2cc3cc(OC)c(O[C@@H]4OC(C)(C)[C@H](OC)[C@@H](O)[C@H]4O)c(C)c3oc2=O)cc1-c1cc(C(=O)Nc2cc3cc(OC)c(O[C@@H]4OC(C)(C)[C@H](OC)[C@@H](O)[C@H]4O)c(C)c3oc2=O)ccc1OC = Active
COc1cc2cc(NC(=O)CCC/C=C/CCCC(=O)Nc3cc4cc(OC)c(OC5CCN(C)CC5)c(C)c4oc3=O)c(=O)oc2c(C)c1OC1CCN(C)CC1 = Active
COc1c(OC2CCN(C)CC2)ccc2cc(NC(=O)CCC/C=C/CCCC(=O)Nc3cc4ccc(OC5CCN(C)CC5)c(OC)c4oc3=O)c(=O)oc12 = Active
COc1cc2cc(NC(=O)C/C=C/CC(=O)Nc3cc4cc(OC)c(OC5CCN(C)CC5)c(C)c4oc3=O)c(=O)oc2c(C)c1OC1CCN(C)CC1 = Active
COc1c(OC2CCN(C)CC2)ccc2cc(NC(=O)C/C=C/CC(=O)Nc3cc4ccc(OC5CCN(C)CC5)c(OC)c4oc3=O)c(=O)oc12 = Active

Below is a list of molecules. For each, state its recorded inhibition.
1. COc1ccc(C(=O)Nc2cc3ccc(O[C@@H]4OC(C)(C)[C@H](OC)[C@@H](O)[C@H]4O)c(OC)c3oc2=O)cc1-c1cc(C(=O)Nc2cc3ccc(O[C@@H]4OC(C)(C)[C@H](OC)[C@@H](O)[C@H]4O)c(OC)c3oc2=O)ccc1OC
2. Cc1c(OC2CCN(C)CC2)ccc2cc(NC(=O)CCC/C=C/CCCC(=O)Nc3cc4ccc(OC5CCN(C)CC5)c(C)c4oc3=O)c(=O)oc12

A.
Active
Active

====

Biological target: Heat shock protein HSP90 (Homo sapiens) (UniProt P07900+P08238)
Test: Inhibition of Hsp90 in human MCF7 cells assessed as induction of Akt degradation at 0.5 fold IC50 after 24 hrs by Western blot method
Format: cell-based
Activity calls are given as the source filed them. The calls are words filed in the database; no cut-off is given here.
Your answer must be one of the following: active, inactive

For orientation, consider the following solved cases.
Cc1c(OCCCN(C)C)ccc2cc(NC(=O)C/C=C/CC(=O)Nc3cc4ccc(OCCCN(C)C)c(C)c4oc3=O)c(=O)oc12 = inactive
Cc1c(OC2CCN(C)CC2)ccc2cc(NC(=O)CCC/C=C/CCCC(=O)Nc3cc4ccc(OC5CCN(C)CC5)c(C)c4oc3=O)c(=O)oc12 = active
COc1c(OC2CCN(C)CC2)ccc2cc(NC(=O)C/C=C/CC(=O)Nc3cc4ccc(OC5CCN(C)CC5)c(OC)c4oc3=O)c(=O)oc12 = active

Q. What call does the record list for COc1cc2cc(NC(=O)C/C=C/CC(=O)Nc3cc4cc(OC)c(OC5CCN(C)CC5)c(C)c4oc3=O)c(=O)oc2c(C)c1OC1CCN(C)CC1 ?
A. active
